src = patent US6759557B2

system: melanoma cells B-16; experiment: Inhibiting effect on melanin synthesis in pigment cells (whiteness of cell residue observed by eye); format: cell-based; parameters: key: −: same colour as the comparative solvent example (black); +: slight colour difference from the comparative solvent example (black grey); ++: clear colour difference from the comparative solvent example (white grey); +++: no colour in the cells (white); details: 1.6 ppm in culture medium, 4 days, B-16 melanoma cells
QUANTITY KIND: whiteness of cells rated by eye (melanin synthesis inhibition)

// worked examples, whiteness of cells rated by eye (melanin synthesis inhibition) included
OC1CCCCCCCCC=CCCCCCCCCC1 (mixture of isomers) [10(EZ)-cycloeicosenol]
++
O=C1CCCCCCCCCCCCCCCCCCC1 [cycloeicosanone]
+
O=C1CCCCCCCCC=CCCCCCCC1O (stereo not shown) [2-hydroxy-9-cyclooctadecenone]
++
O=C1CCC/C=C/CCCCCCCCCC1 [5(E)-cyclohexadecenone]
+
O=C1CCCCCCCCCCCCCCC1O (stereo not shown) [2-hydroxycyclohexadecanone]
−
O=C1CCCCCCCC=CCCCCCCC1 (mixture of isomers) [9(EZ)-cycloheptadecenone]
+

Write down whiteness of cells rated by eye (melanin synthesis inhibition) measured for item OC1CCCCCCCCCCCCCCC1 [cyclohexadecanol]
+

Give me measured whiteness of cells rated by eye (melanin synthesis inhibition), please, for this compound: O=C1CCCCCCCCCC=CCCCCCCCC1O (stereo not shown) [2-hydroxy-10-cycloeicosenone]
+++

Given the compound OC[C@H]1O[C@@H](Oc2ccc(O)cc2)[C@H](O)[C@@H](O)[C@@H]1O [arbutin, reference compound] , write its reported whiteness of cells rated by eye (melanin synthesis inhibition).
−
